Biological target: human ether-à-go-go-related gene (hERG) potassium channel (human, UniProt Q12809);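 further: peak tail current of the secondary pulse compared with the same well before compound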
Sequence (Q12809 whole entry, looked up): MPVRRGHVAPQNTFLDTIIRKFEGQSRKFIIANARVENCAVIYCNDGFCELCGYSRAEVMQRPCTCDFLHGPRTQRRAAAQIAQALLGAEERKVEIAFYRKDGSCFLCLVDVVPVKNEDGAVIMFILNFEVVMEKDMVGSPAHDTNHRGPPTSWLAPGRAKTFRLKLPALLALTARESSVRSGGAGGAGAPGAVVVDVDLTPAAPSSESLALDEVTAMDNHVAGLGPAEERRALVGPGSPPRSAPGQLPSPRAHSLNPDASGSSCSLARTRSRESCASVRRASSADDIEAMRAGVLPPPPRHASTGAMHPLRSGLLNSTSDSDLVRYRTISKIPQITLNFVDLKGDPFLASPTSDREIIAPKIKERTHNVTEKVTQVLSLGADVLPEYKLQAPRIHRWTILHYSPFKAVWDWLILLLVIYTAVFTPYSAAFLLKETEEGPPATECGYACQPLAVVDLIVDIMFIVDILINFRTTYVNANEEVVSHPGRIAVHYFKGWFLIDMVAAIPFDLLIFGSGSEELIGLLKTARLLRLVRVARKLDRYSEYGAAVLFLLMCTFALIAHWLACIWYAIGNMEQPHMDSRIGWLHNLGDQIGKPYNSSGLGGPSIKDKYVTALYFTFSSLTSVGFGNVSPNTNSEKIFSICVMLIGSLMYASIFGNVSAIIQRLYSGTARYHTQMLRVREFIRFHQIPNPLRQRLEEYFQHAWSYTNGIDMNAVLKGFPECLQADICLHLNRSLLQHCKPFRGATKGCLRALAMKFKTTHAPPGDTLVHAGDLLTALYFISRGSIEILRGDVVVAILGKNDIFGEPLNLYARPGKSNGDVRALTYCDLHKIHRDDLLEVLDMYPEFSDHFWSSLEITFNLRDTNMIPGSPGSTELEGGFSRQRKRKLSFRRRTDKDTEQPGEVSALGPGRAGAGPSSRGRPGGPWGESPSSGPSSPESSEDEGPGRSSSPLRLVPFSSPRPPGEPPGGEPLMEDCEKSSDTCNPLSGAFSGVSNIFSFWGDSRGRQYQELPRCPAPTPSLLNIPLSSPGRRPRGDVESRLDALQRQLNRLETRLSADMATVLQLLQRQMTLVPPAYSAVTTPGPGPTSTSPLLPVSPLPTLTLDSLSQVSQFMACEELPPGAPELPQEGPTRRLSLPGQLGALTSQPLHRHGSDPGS
Experiment: primary screen, population patch clamp on CHO cells stably expressing hERG; higher = less effect of the substance
About 14,000 (4.5%) of roughly 310,000 compounds showed an effect of 50% or more. Effects have a minus sign here. The full list was thinned out, with strong results kept by preference.
RESULT TYPE: hERG current change (%, negative = inhibition) at 10uM (%)

# COMPOUND, OBSERVED RESULT
measured = [
    ("O=C(O)c1ccc2c(=O)n3cc(C(=O)c4ccccc4O)cc(Cl)c3nc2c1", 1.38),
    ("COc1ccc2cc1Oc1ccc(cc1)C[C@H]1c3cc(c(OC)cc3CCN1C)Oc1c(OC)c(OC)cc3c1[C@H](C2)N(C)CC3", -37.4),
    ("Cc1cccc(Cn2c(Cc3ccccc3)nc3ccccc32)c1", -24.6),
    ("CCn1c(CN2CCN(c3ccc(Cl)cc3)CC2)nc2ccccc21", -55.3),
    ("Cc1ccc(NS(=O)(=O)c2c(C)noc2C)cc1", -55.1),
    ("COCC1CCN(C(=O)c2ccc3oc(Cc4ccccc4)nc3c2)C1 (centres unmarked)", -0.23),
    ("c1ccc(Cn2c(CN3CCCC3)nc3ccccc32)cc1", -64.6),
    ("O=C(CN1C(=O)C2CC=CCC2C1=O)Nc1ccccc1N1CCCC1 (centres unmarked)", 6.41),
    ("O=C1CN(CC(=O)Nc2ccc(Cl)cc2)CCN1", -4.87),
    ("Cc1cccc(Oc2ccc(N)cc2)c1", -12),
    ("CCOC(=O)Cc1csc(NC(=O)c2ccc(S(=O)(=O)N(CCOC)CCOC)cc2)n1", -1.25),
    ("O=C(N1CCOCCOc2ccccc2OCCOCC1)C(F)(F)F", 6.2),
    ("Cn1c(CN2CCN(c3ccc(Cl)cc3)CC2)nc2ccccc21", -14.3),
    ("COc1ccc2cc1Oc1ccc(cc1)C[C@H]1c3cc(c(OC)cc3CCN1C)Oc1c(OC)c(OC)cc3c1[C@@H](C2)N(C)CC3", -57.4),
    ("c1ccc2c(c1)OCCOCCOCCOCCOCCOc1ccccc1OCCOCCOCCO2", -59.2),
    ("Cc1ccc(Cn2c(Cc3ccccc3)nc3ccccc32)cc1", -10.1),
    ("COc1ccc(S(=O)(=O)N2CCOCC2)cc1NC(=O)CCc1nc2ccccc2c(=O)[nH]1", 21.5),
    ("CC(C)(C#N)Nn1cnnc1", 17.1),
    ("CC(=O)[O-].[K+].c1ccc2c(c1)OCCOCCOc1ccccc1OCCOCCO2", -74.7),
    ("C=C1CCC2[C@](C)(CO)[C@H](O)CC[C@@]2(C)[C@@H]1C/C=C1\\C(=O)OC[C@H]1O (some centres unmarked)", 18.9),
    ("CCc1ccc(NS(=O)(=O)c2c(C)noc2C)cc1", -10.3),
    ("CCN(c1ccccc1)S(=O)(=O)c1ccc(OC)c(NC(=O)Cn2cnc3c2c(=O)n(C)c(=O)n3C)c1", -66),
    ("CC(=O)Nc1ccc(N2C(=O)C3C4CC(=O)C(c5ccccc54)C3C2=O)cc1 (centres unmarked)", 7.32),
    ("CCc1ccc(N=C2NC(=O)/C(=C/c3ccc(OCC(=O)O)cc3)S2)cc1", 14.6),
    ("c1ccc2c(c1)OCCOCCOCCO2", 10),
    ("O=C(NNC(=O)c1cccs1)c1ccc(Cl)c([N+](=O)[O-])c1", -6.26),
    ("Cc1noc(C)c1S(=O)(=O)Nc1ccc(C(C)C)cc1", -17.6),
    ("CCc1nc2ccccc2n1CC(=O)N1CCN(Cc2ccccc2)CC1", -61.5),
    ("CN(c1ccccc1)S(=O)(=O)c1cccc(NC(=O)Cn2cnc3c2c(=O)n(C)c(=O)n3C)c1", -52.6),
    ("CN1CCOCCOc2ccccc2OCCOCC1", 7.5),
    ("CCOC(=O)N1CCC(N2Cc3cccc(C(=O)NCc4ccccc4OC)c3C2=O)CC1", -71.2),
    ("Cc1cc(C)cc(NC(=O)C(OC(=O)Cn2cnc3c2c(=O)n(C)c(=O)n3C)c2ccccc2)c1 (centres unmarked)", -69.7),
    ("ClCc1nc2ccccc2n1Cc1ccccc1", 10.6),
    ("CC(=O)Nc1cccc2c1OCCO2", 6.45),
    ("OCCN1CCOCCOc2ccccc2OCCOCC1", 1.57),
    ("CCN(CC)S(=O)(=O)c1ccc(OC)c(NC(=O)Cn2cnc3c2c(=O)n(C)c(=O)n3C)c1", -41.3),
    ("O=C(Cn1c(NCCO)nc2ccccc21)N1CCN(Cc2ccccc2)CC1", -9.47),
    ("OCCCc1nc2ccccc2n1Cc1ccccc1", 7.46),
    ("CC1=C(C(=O)OCC(Cl)(Cl)Cl)N2C(=O)C(NC(=O)Cc3ccccc3)C2SC1 (centres unmarked)", 15.5),
    ("CN(c1ccccc1)S(=O)(=O)c1cccc(NC(=O)Cn2cnc3ccccc3c2=O)c1", -48.3),
    ("CCN1C(=O)/C(=C/C=C2/SCCN2C)SC1=S", 4.78),
]

* * *

Target: human ether-à-go-go-related gene (hERG) potassium channel (human, UniProt Q12809);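 further: peak tail current of the secondary pulse compared with the same well before compound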
Assay: primary screen, population patch clamp on CHO cells stably expressing hERG; higher = less effect of the substance
About 14,000 (4.5%) of roughly 310,000 compounds showed an effect of 50% or more. Effects have a minus sign here. Many of the other results were omitted from the sample, so strong results are more common in it than they were.
RESULT TYPE: hERG current change (%, negative = inhibition) at 10uM (%)

# COMPOUND, TGT, UNIT DESCRIPTOR, OBSERVED RESULT
data = [
    ("CC(=O)N1CCN(C(=O)COC(=O)COc2ccc(C#N)cc2)CC1", "human ether-à-go-go-related gene (hERG) potassium channel (human, UniProt Q12809)", "%", 4.54),
    ("Cc1ccc(-c2csc(NC(=O)CSc3nc4ccccc4c(=O)n3CCCN(C)C)n2)cc1", "human ether-à-go-go-related gene (hERG) potassium channel (human, UniProt Q12809)", "%", -35.2),
    ("Cc1cccn2c(=O)nc(SCC(=O)Nc3ccc4c(c3)OCO4)nc12", "human ether-à-go-go-related gene (hERG) potassium channel (human, UniProt Q12809)", "%", -5.58),
    ("C=C(C)C(=O)N1CC2(CC(c3cccc(NC(=O)COc4ccc(Cl)cc4)c3)=NO2)C[C@@H]1C(N)=O (some centres unmarked)", "human ether-à-go-go-related gene (hERG) potassium channel (human, UniProt Q12809)", "%", -15.3),
    ("FC(F)(F)c1cccc(N2CCN(C3CC4CCC3C4)CC2)c1 (centres unmarked)", "human ether-à-go-go-related gene (hERG) potassium channel (human, UniProt Q12809)", "%", -1.68),
    ("O=C(CSc1nnc2ccc(-c3ccc(F)cc3)nn12)N1CCCC1", "human ether-à-go-go-related gene (hERG) potassium channel (human, UniProt Q12809)", "%", -13.5),
    ("N#Cc1ccccc1OCC(=O)OCCCOC(=O)COc1ccccc1C#N", "human ether-à-go-go-related gene (hERG) potassium channel (human, UniProt Q12809)", "%", 10.1),
    ("N#Cc1ccc(OCC(=O)OCCCOC(=O)COc2ccc(C#N)cc2)cc1", "human ether-à-go-go-related gene (hERG) potassium channel (human, UniProt Q12809)", "%", -66.8),
    ("COc1ccc(C(C)(C)C)cc1NC(=O)COC(=O)c1nc2nccc(C)n2n1", "human ether-à-go-go-related gene (hERG) potassium channel (human, UniProt Q12809)", "%", 3.17),
    ("CCS(=O)(=O)c1ccc2oc(Nc3ccc(OC)c(OC)c3)nc2c1", "human ether-à-go-go-related gene (hERG) potassium channel (human, UniProt Q12809)", "%", 8.05),
    ("CCS(=O)(=O)NCc1csc(-c2ccccc2)n1", "human ether-à-go-go-related gene (hERG) potassium channel (human, UniProt Q12809)", "%", 18),
    ("Cc1[nH]n(-c2ccccc2)c(=O)c1/C=N/n1c(C)nc2ccccc2c1=O", "human ether-à-go-go-related gene (hERG) potassium channel (human, UniProt Q12809)", "%", 11.8),
    ("COc1ccccc1N1CCN(C(=O)c2cc(-c3ccccc3)on2)CC1", "human ether-à-go-go-related gene (hERG) potassium channel (human, UniProt Q12809)", "%", 8.22),
    ("CCOC(=O)N1CCN(C(=O)CCC2CCCC2)CC1", "human ether-à-go-go-related gene (hERG) potassium channel (human, UniProt Q12809)", "%", 9.89),
    ("COc1ccc(/C=C/C(=O)OCC(=O)c2ccc3c(c2)NC(=O)CO3)c(OC)c1", "human ether-à-go-go-related gene (hERG) potassium channel (human, UniProt Q12809)", "%", 1.6),
    ("COc1ccccc1-c1oc2ccccc2c1C#CCCCCO", "human ether-à-go-go-related gene (hERG) potassium channel (human, UniProt Q12809)", "%", 22.6),
    ("C/C=C(/C)C(=O)O[C@@H]1c2c(ccc3ccc(=O)oc23)O[C@@H]1C(C)(C)OC(=O)/C(C)=C\\C", "human ether-à-go-go-related gene (hERG) potassium channel (human, UniProt Q12809)", "%", -0.936),
    ("CCOC(=O)c1nn(-c2ccccc2F)c(-c2ccccc2)c1C(=O)c1ccccc1", "human ether-à-go-go-related gene (hERG) potassium channel (human, UniProt Q12809)", "%", 7.34),
    ("C=CCN(CC=C)CCOc1ccc(C)cc1[N+](=O)[O-].O=C(O)C(=O)O", "human ether-à-go-go-related gene (hERG) potassium channel (human, UniProt Q12809)", "%", -47.3),
    ("N#Cc1c2c(nc(N)c1-c1ccccc1)CCCCC2", "human ether-à-go-go-related gene (hERG) potassium channel (human, UniProt Q12809)", "%", 7.02),
]

Cited source: paper PMC4336329
